Values from patent US8012956B2

The listing below reports pIC50 for molecules tested on UniProt:P07900.
pIC50: −log10 of the molar value.

molecule	target.of.assay	pIC50
COc1cccc(C(=O)N[C@H]2C[C@H]3CC[C@@H](C2)N3c2ccc(C(=O)NC3CCN(Cc4ccccc4)CC3)cn2)c1C	UniProt:P07900	> 6.30
C[C@H](NC(=O)c1ccc(N2C3CCC2CC(NC(=O)c2ccc(C(N)=O)c(N[C@H]4CC[C@H](O)CC4)c2)C3)nc1)c1ccc(N2CCN(C)CC2)cc1 (stereo partly drawn)	UniProt:P07900	> 6.30
NC(=O)c1cc(Br)c(C(=O)N[C@H]2C[C@H]3CC[C@@H](C2)N3c2ccc(C(=O)C3CC3)cn2)cc1NCC1CC1	UniProt:P07900	> 6.30

---

The listing below reports IC50 for compounds tested on HSP90 (Homo sapiens, UniProt P07900).

compound	IC50
CCOc1ccccc1CNC(=O)c1ccc(N2[C@@H]3CC[C@H]2C[C@@H](NC(=O)c2cccc(OC)c2C)C3)nc1	500 to 999 nM
CC(=O)c1ccc(N2[C@@H]3CC[C@H]2C[C@@H](NC(=O)c2ccc(C(N)=O)c(N4CCC4)c2)C3)nc1	2000 to 10000 nM
NC(=O)c1ccc(N2C3CCC2CC(NC(=O)c2ccc(C(N)=O)c(N[C@H]4CC[C@H](N)CC4)c2)C3)nc1 (stereo partly drawn)	< 500 nM
CC(C)(C)CNc1cc(C(=O)N[C@H]2C[C@H]3CC[C@@H](C2)N3c2ccc(C(=O)C3CC3)cn2)c(Br)cc1C(N)=O	< 500 nM
COc1cccc(C(=O)N[C@H]2C[C@H]3CC[C@@H](C2)N3c2ccc(C(=O)NCCCn3ccnc3)cn2)c1C	< 500 nM
COc1cccc(C(=O)NC2CC3CCC(C2)N3c2ccc(C(=O)N[C@H]3CCN(C)C3)cn2)c1C (stereo partly drawn)	1000 to 2000 nM
CC[C@@H](C)Nc1cc(C(=O)NC2CC3CCC(C2)N3c2ccc(C(=O)C3CC3)cn2)ccc1C(N)=O (stereo partly drawn)	< 500 nM
CC(C)C(=O)c1ccc(N2[C@@H]3CC[C@H]2C[C@@H](NC(=O)c2ccc(C(N)=O)c(NCC4CC4)c2)C3)nc1	1000 to 2000 nM
COc1cc(F)ccc1CNC(=O)c1ccc(N2[C@@H]3CC[C@H]2C[C@@H](NC(=O)c2cccc(OC)c2C)C3)nc1	1000 to 2000 nM
NC(=O)c1ccc(C(=O)N[C@H]2C[C@H]3CC[C@@H](C2)N3c2ccc(C(=O)CCC3CCNCC3)cn2)cc1NCC1CC1	< 500 nM
CCC(Nc1cc(C(=O)N[C@H]2C[C@H]3CC[C@@H](C2)N3c2ccc(C(=O)C3CC3)cn2)c(C)cc1C(N)=O)C(F)(F)F (stereo partly drawn)	< 500 nM
CC(Nc1cc(C(=O)N[C@H]2C[C@H]3CC[C@@H](C2)N3c2ccc(C(=O)C3CC3)cn2)ccc1C(N)=O)C1CC1 (stereo partly drawn)	< 500 nM
